System name: T1, Atg8 K26P, 15N isotope-labeled (S. cerevisiae, UniProt P38182 1-117, K26P, 15N isotope-labeled)
T1 construct: Atg8, S. cerevisiae, amino acids 1-117, K26P mutant used for stability in NMR; Cloned in pGEX-4-T1; GST cut off with thrombin; also called [15N]Atg8; K26P mutant of Atg8; source: E. coli Rosetta pLysS DE3 in M9 minimal medium with [15N]ammonium chloride, purified (glutathione beads, thrombin, SEC)
T1 sequence (looked up): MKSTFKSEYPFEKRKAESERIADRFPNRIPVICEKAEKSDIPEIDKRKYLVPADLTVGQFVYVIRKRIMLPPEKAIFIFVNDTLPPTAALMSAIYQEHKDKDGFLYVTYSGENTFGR
Assay name: NMR titration; unlabeled Atg19 CTD or peptide titrated into 15N-labeled Atg8 K26P; 2D 15N HSQC at 25 °C; Atg8 135-500 μM, Atg19 C terminus 15-1000 μM; Kd estimated as the median of one-site saturation fits of CSCs of four to twelve Atg8 residues
Condition context: both partners purified
pKd: −log10 of the molar value.
Readout type: pKd

Sample SAESLQASQEPAYSAQIDTAPEADDSSIISTSISLSYDGDDNE (domain or fragment, S. cerevisiae, UniProt P35193 365-407, looked up, Atg19, S. cerevisiae, amino acids 365-407 (last eight amino acids 408-415 deleted), F376A, F379A, L384A, L387A; also called FFLLΔ; source: E. coli Rosetta pLysS DE3, purified (glutathione beads, thrombin, SEC)) [Atg19 CTD (amino acids 365-407) F376A, F379A, L384A, L387A] — what was its pKd?
3.22

Here is the next binder: Atg19 C-terminal domain (amino acids 365-415), wild type (domain or fragment, S. cerevisiae, UniProt P35193 365-415, looked up, Atg19, S. cerevisiae, C-terminal domain, amino acids 365-415; also called Atg19 CTD; wild-type Atg19 C terminus; source: E. coli Rosetta pLysS DE3, purified (glutathione beads, thrombin, SEC)) SAESLQASQEPFYSFQIDTLPELDDSSIISTSISLSYDGDDNEKALTWEEL
~3.89

Here is the next binder: SQEPFYSFQIDT [12 amino acid peptide containing 376FYSF379 of Atg19]
~3.48

Here is the next binder: QIDTLPELDDSS [12 amino acid peptide containing 384LPEL387 of Atg19]
~3.23
